- Test: chemical genetic growth profiling, strain panel (AID 1159580);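 further: tested at 20 µM; growth read once vehicle control cultures reached saturation at 30 °C; 1 = growth at the plate median or of vehicle wells; lower values mean less growth of the strain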
- Condition description: S. cerevisiae deletion strains, growth OD, locus YDR001C, strain nth1, active compounds read low
Out of some 5,500 compounds screened, about 2,000 (36%) were called active. Roughly 18% stayed inconclusive and do not appear here. The list shows a part of the results.
Observed property: normalized growth
One number for each entry.

For orientation, consider the following solved cases.
Request: Look up normalized growth: NC(=O)c1cccnc1
Response: 0.972

Request: Please give the measured normalized growth for this molecule: O=C(O)c1ccc(S(=O)(=O)N(Cl)Cl)cc1
Response: 0.978

Request: Requested field: normalized growth. Item: CN(C)CCCN1c2ccccc2CCc2ccccc21
Response: 1.01

Request: For COC(=O)c1c(C)c2c(c(C)c1O)OC(=O)c1c(C)c(Cl)c(O)c(Cl)c1O2 , what is its reported normalized growth?
Response: 0.969

Request: Quick check: normalized growth of CS(=O)(=O)c1ccc([C@@H](O)[C@@H](CO)NC(=O)C(Cl)Cl)cc1 ?
Response: 1.02

State recorded normalized growth for all listed molecules.
1. O=C(NCO)c1cccnc1
2. O=P1(N(CCCl)CCCl)NCCCO1 (centres undefined)
3. CN(C)CCCN1c2ccccc2Sc2ccccc21
4. COc1ccc2cc(CCC(C)=O)ccc2c1
5. CC(C)CCCC(C)[C@H]1CCC2C3C(=O)C=C4C[C@@H](O)CC[C@]4(C)C3CC[C@@]21C (some centres undefined)
6. Cc1scc2c1N(C(=O)CN1CCN(C)CC1)c1ccccc1NC2=O

Response:
1. 1
2. 0.992
3. 0.985
4. 0.994
5. 1.01
6. 0.948

Dear colleague, could you send me normalized growth for each of the items below? Thanks.
1. COC(=O)c1c(OC)cc2c(c1C)Oc1c(Cl)c(O)c(Cl)c(C)c1C(=O)O2
2. CC(C)c1ccc2c(c1)CCC1[C@](C)(CN)CCC[C@]21C (some centres undefined)

Response:
1. 0.986
2. 1.02

Request: Form field: reported normalized growth of Nc1ccc(S(=O)(=O)NC(=O)c2ccccc2)cc1
Response: 0.975

----------
- Test: chemical genetic growth profiling, strain panel (AID 1159580);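 further: tested at 20 µM; growth read once vehicle control cultures reached saturation at 30 °C; 1 = growth at the plate median or of vehicle wells; lower values mean less growth of the strain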
- Condition description: S. cerevisiae deletion strains, growth OD, locus YOR070C, strain gyp1, active compounds read low
Screen size: about 5,500 compounds; about 2,000 (36%) were called active. Roughly 18% stayed inconclusive and do not appear here. This is one part of the list.
Hi there, I'd appreciate the recorded normalized growth for every entry that follows.
Numbers only.

Use these answered entries as a reference point.
Request: Quick one: normalized growth for CC(CCc1ccccc1)NCC(O)c1ccc(O)c(C(N)=O)c1 (stereo unspecified) ?
Response: 0.996

Request: Reported normalized growth, molecule OC[C@H]1O[C@@H](O[C@@H]2[C@@H](CO)O[C@](O)(CO)[C@H]2O)[C@H](O)[C@@H](O)[C@H]1O : ____
Response: 1

Request: Looking for the measured normalized growth of CC(=O)c1ccc(O)c(CC=C(C)C)c1 , can you help?
Response: 0.979

Below is a list of molecules. For each, state its recorded normalized growth.
1. CS(=O)(=O)Nc1ccc([N+](=O)[O-])cc1Oc1ccccc1
2. CC(=O)c1cc(CC=C(C)C)c(O)c(CC=C(C)C)c1
3. Cc1cn[nH]c1

Response:
[0.986, 1.02, 1.02]
